// reported normalized growth for each item listed
- Assay Protocol: chemical genetic growth profiling, strain panel (AID 1159580);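 also: tested at 20 µM; growth read once vehicle control cultures reached saturation at 30 °C; 1 = growth at the plate median or of vehicle wells; lower values mean less growth of the strain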
- Experimental Conditions: S. cerevisiae deletion strains, growth OD, locus YGR052W, strain FMP48, hits give low values
Screen size: about 5,500 compounds; about 2,000 (36%) were called active. Not shown: some 18% with an inconclusive outcome. Some of the results follow.

>  <Compound>
Cc1ccc2nc(-c3ccc4c(c3)OCCO4)cn2c1

>  <normalized growth>
1.04

$$$$
>  <Compound>
O=[N+]([O-])c1cccc(C2CC(c3ccccc3)=Nc3ccccc3S2)c1 (stereo unspecified)

>  <normalized growth>
1.06

$$$$
>  <Compound>
C#CCSC1=NNC(c2ccccn2)S1 (stereo unspecified)

>  <normalized growth>
0.175

$$$$
>  <Compound>
O=C(CSC1=NNC(c2ccccn2)S1)Nc1ccccc1 (stereo unspecified)

>  <normalized growth>
1.08

$$$$
>  <Compound>
O=C1c2cccc3c(Sc4ccccc4)ccc(c23)C(=O)N1NCCO

>  <normalized growth>
0.83

$$$$
>  <Compound>
NC(=S)N/N=C1/CCCc2ccccc21

>  <normalized growth>
0.746

$$$$
>  <Compound>
O=S(=O)(Oc1ccc(-c2csnn2)cc1)c1ccccc1Cl

>  <normalized growth>
0.969

$$$$
>  <Compound>
Cc1ccc(-n2cccc2)c(NS(=O)(=O)c2ccc(-c3ccno3)s2)c1

>  <normalized growth>
0.898

$$$$
>  <Compound>
CC(C)(C)c1cc(C(=O)Nc2ccc3c(c2)OCO3)n(Cc2ccc(F)cc2)n1

>  <normalized growth>
0.997

$$$$
>  <Compound>
COc1c(Br)csc1C(=O)O/N=C(/N)c1cc(C(F)(F)F)cc(C(F)(F)F)c1

>  <normalized growth>
1.1

$$$$
>  <Compound>
CC(C)(C)c1cc(C(=O)NNc2cccc(Cl)c2)n(Cc2ccccc2)n1

>  <normalized growth>
0.922

$$$$

Values compiled from PubChem BioAssay AID1159580.
